Target: T1, Boi1, P38041
T1 sequence (P38041 1-86, looked up): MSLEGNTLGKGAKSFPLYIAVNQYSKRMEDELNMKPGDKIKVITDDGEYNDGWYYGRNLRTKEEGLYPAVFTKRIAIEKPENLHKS
Assay: SPOT array
Details: median of control spots 1162
// reported SPOT intensity per item
// no unit, no text: just the number

Reference set (6 entries):
EEEEEHPPLPARRKS :: 0
GKFIPSRPAPKPPSS :: 3
PVLPPPRSPNRPTLS :: 849
QQEQNTPPLPPKPKS :: 0
NRPAIRIPSLKKPAL :: 1
SKIRPTPRKPSRMAT :: 4

Return SPOT intensity (reported value) for this binder: `QLMKNLPKIPLLNDI` 1
